Cited source: ChEMBL document CHEMBL1126522

experimentalTarget: Protein kinase C (PKC) (Rattus norvegicus) (UniProt P05696+P68403+P09216+P63319+P09215+Q64617+Q9WTQ0+P09217)
procedureText: Inhibition of partially purified rat brain protein kinase C
readoutName: Inhibition (nM)

>>> reportedvalue("CNC(=O)[C@@H]1C[C@@H]2O[C@H]1n1c3ccccc3c3c4c(c5c6ccccc6n2c5c31)C(=O)NC4=O")
0.5
>>> reportedvalue("O=C1NC(=O)c2c1c1c3ccccc3n3c1c1c2c2ccccc2n1[C@@H]1O[C@H]3C[C@@]1(O)C(=O)O")
6
>>> reportedvalue("O=C1NC(O)c2c1c1c3ccccc3n3c1c1c2c2ccccc2n1[C@H]1CC[C@@H]3O1 (some centres not stated)")
50

I. S=C1NC(=S)c2c1c1c3ccccc3n3c1c1c2c2ccccc2n1[C@H]1CC[C@@H]3O1
II. O=C1NC(=O)c2c1c1c3ccccc3n3c1c1c2c2ccccc2n1[C@@H]1O[C@H]3C[C@H]1CO
III. C=C1C[C@@H]2O[C@H]1n1c3ccccc3c3c4c(c5c6ccccc6n2c5c31)C(=O)NC4=O
input: Sort low-to-high on Inhibition, please. Answer format: list of labels, ordered as asked.
output: II, III, I
